Measured surface tension liquid-gas values are reported for all entries that follow.
condition parameters: 338 K, Capillary rise
Return type: number; implicit unit mN/m.

CCCCCCCC[n+]1ccn(C)c1.[Cl-] [1-methyl-3-octylimidazolium chloride]	29.7
CCCCCCn1cc[n+](C)c1.F[P-](F)(F)(F)(F)F [1-hexyl-3-methylimidazolium hexafluorophosphate]	40.5
CCCCn1cc[n+](C)c1.[I-] [1-butyl-3-methylimidazolium iodide]	49.9
CCCCCCn1cc[n+](C)c1.[Cl-] [1-hexyl-3-methylimidazolium chloride]	39.4
CCCCn1cc[n+](C)c1.[Cl-] [1-butyl-3-methylimidazolium chloride]	45.6

[in] Endpoint output: surface tension liquid-gas of CCCCn1cc[n+](C)c1.F[P-](F)(F)(F)(F)F [1-butyl-3-methylimidazolium hexafluorophosphate] . Value?
[out] 44.6

====

condition parameters: 348 K, Capillary rise
Measured surface tension liquid-gas values are reported for all entries that follow.
Return type: number; implicit unit mN/m.

CCCCn1cc[n+](C)c1.F[B-](F)(F)F [1-butyl-3-methylimidazolium tetrafluoroborate]	40.7

[in] Endpoint output: surface tension liquid-gas of CCCCCCCC[n+]1ccn(C)c1.F[B-](F)(F)F [1-methyl-3-octylimidazolium tetrafluoroborate] . Value?
[out] 28.2

[in] Endpoint output: surface tension liquid-gas of CCCCn1cc[n+](C)c1.[I-] [1-butyl-3-methylimidazolium iodide] . Value?
[out] 49

[in] Endpoint output: surface tension liquid-gas of CCCCCCCC[n+]1ccn(C)c1.[Cl-] [1-methyl-3-octylimidazolium chloride] . Value?
[out] 29.2

[in] Endpoint output: surface tension liquid-gas of CCCCCCn1cc[n+](C)c1.F[B-](F)(F)F [1-hexyl-3-methylimidazolium tetrafluoroborate] . Value?
[out] 36.6

[in] Endpoint output: surface tension liquid-gas of CCCCn1cc[n+](C)c1.[Cl-] [1-butyl-3-methylimidazolium chloride] . Value?
[out] 45

[in] Endpoint output: surface tension liquid-gas of CCCCCCn1cc[n+](C)c1.[Cl-] [1-hexyl-3-methylimidazolium chloride] . Value?
[out] 38.8

[in] Endpoint output: surface tension liquid-gas of CCCCn1cc[n+](C)c1.F[P-](F)(F)(F)(F)F [1-butyl-3-methylimidazolium hexafluorophosphate] . Value?
[out] 43.8

[in] Endpoint output: surface tension liquid-gas of CCCCCCn1cc[n+](C)c1.F[P-](F)(F)(F)(F)F [1-hexyl-3-methylimidazolium hexafluorophosphate] . Value?
[out] 39.8

[in] Endpoint output: surface tension liquid-gas of CCCCCCn1cc[n+](C)c1.[I-] [1-hexyl-3-methylimidazolium iodide] . Value?
[out] 39.7

====

Measured surface tension liquid-gas values are reported for all entries that follow.
condition parameters: 308 K, Capillary rise
Return type: number; implicit unit mN/m.

Here's what some known entries look like.
CCCCCCn1cc[n+](C)c1.[I-] [1-hexyl-3-methylimidazolium iodide]	42.7
CCCCn1cc[n+](C)c1.[I-] [1-butyl-3-methylimidazolium iodide]	52.5
CCCCCCCC[n+]1ccn(C)c1.F[B-](F)(F)F [1-methyl-3-octylimidazolium tetrafluoroborate]	30.1
CCCCCCn1cc[n+](C)c1.[Cl-] [1-hexyl-3-methylimidazolium chloride]	41.2

# ---- query compound ----
[in] Endpoint output: surface tension liquid-gas of CCCCn1cc[n+](C)c1.[Cl-] [1-butyl-3-methylimidazolium chloride] . Value?
[out] 47.5

Origin of values: the NIST ThermoML archive (doi:10.1016/j.fluid.2007.10.004)
